# measurement target: T1, human TGFβ2, mature receptor-binding domain (human, UniProt P09858 303-414 (pig entry), The mature TGFβ2 is a disulfide-linked homodimer of this 112-residue chain. The 4A11 epitope spans both monomers (p-1207).)
# T1 sequence: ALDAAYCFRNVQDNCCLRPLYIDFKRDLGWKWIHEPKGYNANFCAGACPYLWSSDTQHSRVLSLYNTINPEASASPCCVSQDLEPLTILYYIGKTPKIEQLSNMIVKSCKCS
# method notes: cell-based or functional assay
assay readout: fold drop in blocking against h6F12.v1 (fold)

INSERT INTO measurements (binder, measured_value) VALUES
  ('h6F12.v1.8 (antibody, human IgG1, kappa, N297G, V domains shown) VH: EVTLKESGPVLVKPTETLTLTCTVSGFSLTTYNVHWVRQPPGKALEWMALIWNTGGTRYNSALKSRLTISKDTSKSQVVLTMTNMDPVDTATYYCARDPVPNKWHFDFWGPGTLVTVSS VL: DIQMTQSPSTLSASVGDRVTITCLASEDIYSNLAWYQQKPGKSPKLLIYDARSLQDGVPSRFSGSESGPEYTLTISSLQPDDFATYFCQQHHAYPFTFGQGTKVEIKR', 4),
  ('h6F12.v1.5 (antibody, human IgG1, kappa, N297G, V domains shown) VH: EVTLKESGPVLVKPTETLTLTCTVSGFSLTTYNVHWVRQPPGKALEWMGLIWNTGGTRYNSALKSRLTISKDTSKSQVVLTMTNMDPVDTATYYCARDPVPNKWHFDFWGPGTLVTVSS VL: DIQMTQSPSTLSASVGDRVTITCLASEDIYSNLAWYQQKPGKSPKLLIYDARSLQDGVPSRFSGSESGPEYTLTISSLQPDDFATYYCQQHHAYPFTFGQGTKVEIKR', 2);
